Tested on: LOX IMVI
ASSAY REMARKS: NCI tumour cell line growth inhibition, 48 h
Calls of active or inactive are those of the source. No stated cut-off is given here; in the data, active = GI50 up to about 1.1 µM and inactive = higher.
Give one outcome, nothing more. List: active, inactive

O=C(c1cccs1)N(C(=S)N1CCN(c2ccccn2)CC1)C1CCCCC1 : inactive
CC(=O)OC1CC2C(C)(C)C(=O)C=C[C@]2(C)C2CCC3(C)C(c4ccoc4)C(=O)[C@H]4O[C@]43[C@]12C (stereo partly specified) : inactive
CC(=O)OCC1CCC(=C2C(=O)OC(C)(C)OC2=O)N1 (stereo unspecified) : inactive

Request: Dear colleague, could you share the recorded outcome for CCN(CC)CCC(=O)c1ccc(Oc2ccccc2)cc1 when you have a moment?
Response: inactive

Request: Dear colleague, could you share the recorded outcome for COc1ccc(CNc2cc(OC)cc(OC)c2)cc1 when you have a moment?
Response: inactive

Request: Dear colleague, could you share the recorded outcome for Cc1ccc([N+](=O)[O-])c2c(NCCNC(=O)c3cc(C(=O)NCCNc4ccnc5c(C)ccc([N+](=O)[O-])c45)n(C)n3)ccnc12 when you have a moment?
Response: inactive

Request: Dear colleague, could you share the recorded outcome for COc1cc2c[n+](C)c3c4cc(OC)c(OCc5ccccc5)cc4c(OCc4ccccc4)cc3c2cc1OC when you have a moment?
Response: inactive

Request: Dear colleague, could you share the recorded outcome for c1ccc(-c2nnc(-c3nsc4ccccc34)o2)cc1 when you have a moment?
Response: inactive
